System: MEK3
Construct: gene MAP2K3
condition info: concentration: 1 μM, replicates: in singlicate; n = 1;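 note: KINOMEscan kinase panel screen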
Attribute: %Inh
reported property: %Inh (%)

>  <structure>
NS(=O)(=O)c1cccc(-c2ccc3ncc(N4CCOCC4)nc3c2)c1

>  <measured>
0

$$$$
>  <structure>
N#Cc1c(N2CCOCC2)sc(-c2ccn[nH]2)c1-c1ccc(Cl)cc1

>  <measured>
12

$$$$
>  <structure>
CN1c2ccc(NCc3ccc(F)cc3)cc2-c2c(cnn2C)S1(=O)=O

>  <measured>
13

$$$$
>  <structure>
Cc1ccc(C(=O)NCC(N)=O)cc1-n1c(C)cc(OCc2ccc(F)cc2F)c(Br)c1=O

>  <measured>
0

$$$$
>  <structure>
COCCNC(=O)c1ccc(-c2cc(C(=O)NC3CC3)cc(F)c2C)cc1

>  <measured>
29

$$$$
>  <structure>
NS(=O)(=O)CCc1cccc(Nc2nccc(-c3c(-c4cccc(NC(=O)c5c(F)cccc5F)c4)nn4ccccc34)n2)c1

>  <measured>
12

$$$$
>  <structure>
Nc1nc(-c2ccc3c(N)n[nH]c3c2)cc(N2CCCC2)n1

>  <measured>
0

$$$$
>  <structure>
Fc1ccc(-c2ncn(CCCN3CCOCC3)c2-c2ccccn2)cc1

>  <measured>
0

$$$$
>  <structure>
Cl.Nc1ncnc2occ(-c3ccc(NC(=O)Nc4cc(C(F)(F)F)ccc4F)cc3)c12

>  <measured>
0

$$$$

###

Here the recorded %Inh is given for each entry.
Test system: FYN
condition info: concentration: 1 μM, replicates: in singlicate; n = 1
reported property: %Inh (%)

>  <structure>
CN1c2ccc(NCc3ccc(F)cc3)cc2-c2c(cnn2C)S1(=O)=O

>  <reported property>
%Inh

>  <unit info>
%

>  <measured>
12

$$$$
>  <structure>
O=c1cc(N2CCOCC2)nc2n(Cc3cccc(F)c3)ccn12

>  <reported property>
%Inh

>  <unit info>
%

>  <measured>
1

$$$$
>  <structure>
Fc1ccc(-c2ncn(CCCN3CCOCC3)c2-c2ccccn2)cc1

>  <reported property>
%Inh

>  <unit info>
%

>  <measured>
0

$$$$

###

Test system: VRK2
condition info: concentration: 1 μM, replicates: in singlicate; n = 1
reported property: %Inh (%)

>  <compound>
COC(=O)Nc1nc2cc(Oc3ccc(NC(=O)Nc4cc(F)ccc4F)cc3)ccc2[nH]1.Cl [GW701424]

>  <test system>
VRK2

>  <reported property>
%Inh

>  <unit info>
%

>  <measured>
30

$$$$
>  <compound>
Cc1cccc(-c2nc(Nc3ccc4ncsc4c3)c3ccccc3n2)n1 [GW867588]

>  <test system>
VRK2

>  <reported property>
%Inh

>  <unit info>
%

>  <measured>
0

$$$$
>  <compound>
Cc1ccc(NC(=O)c2ccnc(N3CCN(C)CC3)c2)cc1-c1ccc(C(=O)NCC2CC2)cc1 [GW775604]

>  <test system>
VRK2

>  <reported property>
%Inh

>  <unit info>
%

>  <measured>
17

$$$$
>  <compound>
CCCCCc1nc2c(N)ncnc2n1CCCCC [SKF-97255]

>  <test system>
VRK2

>  <reported property>
%Inh

>  <unit info>
%

>  <measured>
0

$$$$
>  <compound>
NCC(NC(=O)c1cc(-c2cn[nH]c2)c(-c2ccnc3[nH]ccc23)s1)c1ccccc1.O=C(O)C(F)(F)F.O=C(O)C(F)(F)F (centres unmarked) [GSK1325775]

>  <test system>
VRK2

>  <reported property>
%Inh

>  <unit info>
%

>  <measured>
0

$$$$
>  <compound>
Nc1nccc(-c2c(-c3ccc(F)cc3)ncn2C2CCN(CC(F)(F)F)CC2)n1 [SB-236560]

>  <test system>
VRK2

>  <reported property>
%Inh

>  <unit info>
%

>  <measured>
31

$$$$
>  <compound>
Cc1ccc(C(=O)NCC(N)=O)cc1-n1c(C)cc(OCc2ccc(F)cc2F)c(Br)c1=O

>  <test system>
VRK2

>  <reported property>
%Inh

>  <unit info>
%

>  <measured>
0

$$$$
>  <compound>
COc1ccc(Nc2nccc(N3CCC(NC(=O)Nc4cc(C)ccc4C)C3)n2)cc1 (centres unmarked) [GSK1379741]

>  <test system>
VRK2

>  <reported property>
%Inh

>  <unit info>
%

>  <measured>
0

$$$$
>  <compound>
c1ccc(-c2n[nH]cc2-c2ccnc3ccccc23)nc1 [GW271431]

>  <test system>
VRK2

>  <reported property>
%Inh

>  <unit info>
%

>  <measured>
0

$$$$
>  <compound>
Cc1cccc(-c2nc(-c3ccc(S(C)(=O)=O)cc3)sc2-c2ccncc2)c1

>  <test system>
VRK2

>  <reported property>
%Inh

>  <unit info>
%

>  <measured>
0

$$$$
>  <compound>
CCc1nc(-c2cccc(C)c2)c(-c2ccnc(NCc3ccccc3)c2)s1

>  <test system>
VRK2

>  <reported property>
%Inh

>  <unit info>
%

>  <measured>
0

$$$$
>  <compound>
O=C(c1ccc(-c2cc(-c3c[nH]nc3-c3ccccn3)ccn2)cc1)N1CCOCC1 [GW812171]

>  <test system>
VRK2

>  <reported property>
%Inh

>  <unit info>
%

>  <measured>
23

$$$$
>  <compound>
Cc1c2ccc(N(C)c3ccnc(Nc4cccc(S(N)(=O)=O)c4)n3)cc2nn1Cc1ccccc1.Cl.Cl [GW787226]

>  <test system>
VRK2

>  <reported property>
%Inh

>  <unit info>
%

>  <measured>
0

$$$$
>  <compound>
CC(C)(C)n1cnc2c(N)ncnc21 [SKF-97359]

>  <test system>
VRK2

>  <reported property>
%Inh

>  <unit info>
%

>  <measured>
100

$$$$
>  <compound>
COCCNC(=O)c1ccc(-c2cc(C(=O)NC3CC3)cc(F)c2C)cc1 [GW868318]

>  <test system>
VRK2

>  <reported property>
%Inh

>  <unit info>
%

>  <measured>
37

$$$$
>  <compound>
COc1ccc(CNC(=O)NC2CCN(c3ccnc(Nc4ccc(OC)cc4)n3)C2)cc1 (centres unmarked) [GSK1379727]

>  <test system>
VRK2

>  <reported property>
%Inh

>  <unit info>
%

>  <measured>
32

$$$$
>  <compound>
NS(=O)(=O)c1cccc(-c2ccc3nccc(-c4cccc(S(N)(=O)=O)c4)c3c2)c1 [GW867253]

>  <test system>
VRK2

>  <reported property>
%Inh

>  <unit info>
%

>  <measured>
12

$$$$
>  <compound>
COc1ccc(Nc2ncc(C#N)c(Nc3ccccc3C(N)=O)n2)cc1N1CCN(C)CC1.Cl [GSK1558669]

>  <test system>
VRK2

>  <reported property>
%Inh

>  <unit info>
%

>  <measured>
0

$$$$
>  <compound>
Cc1nnc(-c2ccc3ncc(-c4ccc(S(C)=O)cc4)n3c2)o1 (centres unmarked)

>  <test system>
VRK2

>  <reported property>
%Inh

>  <unit info>
%

>  <measured>
0

$$$$
>  <compound>
COc1cc2c(cc1OC[C@@H](O)CO)ncc1c3ccc(C#N)cc3[nH]c21

>  <test system>
VRK2

>  <reported property>
%Inh

>  <unit info>
%

>  <measured>
9

$$$$
>  <compound>
O=C(Nc1cccc(-c2nn3ncccc3c2-c2ccnc(Nc3cccc(C(F)(F)F)c3)n2)c1)c1c(F)cccc1F [GSK299495]

>  <test system>
VRK2

>  <reported property>
%Inh

>  <unit info>
%

>  <measured>
20

$$$$
>  <compound>
Nc1nc(-c2ccc3c(N)n[nH]c3c2)cc(N2CCCC2)n1 [GSK2227430]

>  <test system>
VRK2

>  <reported property>
%Inh

>  <unit info>
%

>  <measured>
0

$$$$
>  <compound>
O=C1Cc2cc(Nc3nc(NCc4cccc(S(=O)(=O)C(F)(F)F)c4)ncc3C(F)(F)F)ccc2N1

>  <test system>
VRK2

>  <reported property>
%Inh

>  <unit info>
%

>  <measured>
23

$$$$
>  <compound>
Cc1cn2c(=O)cc(N3CCOCC3)nc2n1Cc1cccc(Cl)c1Cl [GSK2334006]

>  <test system>
VRK2

>  <reported property>
%Inh

>  <unit info>
%

>  <measured>
0

$$$$
>  <compound>
CC(C)Oc1ccc2c(-c3ccnc(Nc4ccc(N5CCN(C)CC5)cc4)n3)cnn2n1 [GW696155]

>  <test system>
VRK2

>  <reported property>
%Inh

>  <unit info>
%

>  <measured>
8

$$$$
>  <compound>
O=C(Nc1n[nH]c2cc(-c3cccc(F)c3)ccc12)C1CC1 [SB-735464]

>  <test system>
VRK2

>  <reported property>
%Inh

>  <unit info>
%

>  <measured>
23

$$$$
>  <compound>
O=c1cc(N2CCOCC2)nc2n(Cc3cccc4ccccc34)ccn12 [GSK2333389]

>  <test system>
VRK2

>  <reported property>
%Inh

>  <unit info>
%

>  <measured>
0

$$$$
>  <compound>
O=C(NOCC1CC1)c1ccc(F)c(F)c1Nc1ccc(I)cc1Cl

>  <test system>
VRK2

>  <reported property>
%Inh

>  <unit info>
%

>  <measured>
0

$$$$
>  <compound>
COc1cc2ncn(-c3cc(OCc4sccc4Cl)c(C(N)=O)s3)c2cc1OC [GSK448459]

>  <test system>
VRK2

>  <reported property>
%Inh

>  <unit info>
%

>  <measured>
5

$$$$
>  <compound>
O=C(NCCNc1ccnc(Nc2ccc(F)cc2)n1)c1cc2ccccc2s1 [GSK1379874]

>  <test system>
VRK2

>  <reported property>
%Inh

>  <unit info>
%

>  <measured>
0

$$$$
>  <compound>
N#Cc1ccc(-c2cc(-c3c[nH]nc3-c3ccccn3)ccn2)cc1 [GW693028]

>  <test system>
VRK2

>  <reported property>
%Inh

>  <unit info>
%

>  <measured>
13

$$$$
>  <compound>
COc1ccc(Nc2nccc(N3CCC(NC(=O)Nc4cccc(C(C)=O)c4)C3)n2)cc1 (centres unmarked) [GSK1379731]

>  <test system>
VRK2

>  <reported property>
%Inh

>  <unit info>
%

>  <measured>
95.1

$$$$
